FYI, the data here is from patent US20170216252A1.

Record form. Attribute: MIC. Fill in for each entry.
Tested on: S. aureus ATCC 29213
Assay: In vitro susceptibility, broth microdilution MIC
Format: cell-based, Staphylococcus aureus
Conditions: Staphylococcus aureus, ATCC29213, Table 8; tested at least in duplicate, differing values all given; read-out: MIC

| Smiles Data | MIC |
| --- | --- |
| Brc1ccc2cc(/C=C/c3ccc4ccccc4n3)[nH]c2c1 | > 64 µg/mL |
| COC(=O)c1c(NCc2ccc(Cl)cc2)[nH]c2cc(Br)ccc12 | 4 µg/mL |
| COC(=O)c1c(C(=O)Nc2ccc(OC)nc2)[nH]c2cc(Br)ccc12 | > 64 µg/mL |
| Brc1ccc2cc(CSCc3ccccc3)[nH]c2c1 | > 64 µg/mL |
| Clc1ccc(/C=C/c2cc3ccc(Br)cc3[nH]2)cn1 | > 64 µg/mL |

Record MIC for all entries; do not skip any.
1. O=C(c1c(/C=C/c2ccc(Br)cn2)[nH]c2cc(Br)ccc12)C(F)(F)F
2. COC(=O)c1cc(Br)cc2[nH]c(-c3cc4c(C(=O)OC)cc(Br)cc4[nH]3)cc12
3. O=C(Nc1ccc(Cl)nc1)c1[nH]c2cc(Br)ccc2c1C(=O)O

Reply:
32 µg/mL
> 64 µg/mL
> 64 µg/mL
